# System: E.cloacae Nek 39
# EXPERIMENT NOTES: In vitro antibacterial activity, agar plate dilution method (MIC)
# Type: cell-based
# RUN CONDITIONS: Enterobacter cloacae, NEK39; E.cloacae Nek 39 (β-Lactamase-producing strain); Mueller Hinton agar, inoculum 10⁶ CFU/ml, 37°C, 16 hours; read-out: Minimum Inhibitory Concentration (MIC: µg/ml)
For each entry below, report its MIC value.
Numbers only, in µg/mL.

In the examples that follow, each entry is paired with its recorded MIC.
CO/N=C(\C(=O)NC1C(=O)N2C(C(=O)[O-])=C(C[n+]3ccc4cc(OC(C)=O)c(OC(C)=O)cc4c3)CSC12)c1csc(N)n1 (stereo not drawn) :: 0.2
CC(C)(ON=C(C(=O)NC1C(=O)N2C(C(=O)[O-])=C(C[n+]3ccc4ccccc4c3)CSC12)c1csc(N)n1)C(=O)O (stereo not drawn) [Reference Ex. 1, reference compound] :: 1.56
CON=C(C(=O)NC1C(=O)N2C(C(=O)[O-])=C(C[n+]3ccc4cccc(O)c4c3)CS[C@H]12)c1csc(N)n1 (stereo partly drawn) [Reference Ex. 3, reference compound] :: 0.78
C=C(O/N=C(\C(=O)NC1C(=O)N2C(C(=O)[O-])=C(C[n+]3ccc4cc(O)c(O)cc4c3)CSC12)c1csc(N)n1)C(=O)O (stereo not drawn) :: 0.025
CO/N=C(\C(=O)N[C@@H]1C(=O)N2C(C(=O)O)=C(COC(C)=O)CS[C@H]12)c1csc(N)n1 [Cefotaxime, reference compound] :: 3.12

Your task in this section: give MIC for each listed record.
1. CC(C)ON=C(C(=O)NC1C(=O)N2C(C(=O)[O-])=C(C[n+]3ccc4cc(O)c(O)cc4c3)CS[C@H]12)c1csc(N)n1 (stereo partly drawn)
2. C=CCON=C(C(=O)NC1C(=O)N2C(C(=O)[O-])=C(C[n+]3ccc4cc(O)c(O)cc4c3)CS[C@H]12)c1csc(N)n1 (stereo partly drawn)
3. CON=C(C(=O)NC1C(=O)N2C(C(=O)[O-])=C(C[n+]3ccc4c(O)cccc4c3)CS[C@H]12)c1csc(N)n1 (stereo partly drawn) [Reference Ex. 2, reference compound]

1: 0.05; 2: 0.1; 3: 0.78

What value of MIC on E.cloacae Nek 39 does CC(C)(ON=C(C(=O)NC1C(=O)N2C(C(=O)[O-])=C(C[n+]3ccc4c(O)cccc4c3)CSC12)c1csc(N)n1)C(=O)O (stereo not drawn) [Reference Ex. 4, reference compound] have?
12.5

###

# Test system: Ps.aeruginosa IFO3445
# EXPERIMENT NOTES: In vitro antibacterial activity, agar plate dilution method (MIC)
# Type: cell-based
# RUN CONDITIONS: Pseudomonas aeruginosa; Ps.aeruginosa IFO3445; Mueller Hinton agar, inoculum 10⁶ CFU/ml, 37°C, 16 hours; read-out: Minimum Inhibitory Concentration (MIC: µg/ml)
RECORDED ENDPOINT: MIC (µg/mL)
Numbers only, in µg/mL.

In the examples that follow, each entry is paired with its recorded MIC.
CC(C)(O/N=C(\C(=O)N[C@@H]1C(=O)N2C(C(=O)[O-])=C(C[n+]3ccccc3)CS[C@H]12)c1csc(N)n1)C(=O)O [Ceftazidime, reference compound] :: 0.39
CO/N=C(\C(=O)N[C@@H]1C(=O)N2C(C(=O)O)=C(COC(C)=O)CS[C@H]12)c1csc(N)n1 [Cefotaxime, reference compound] :: 3.12
CC(C)ON=C(C(=O)NC1C(=O)N2C(C(=O)[O-])=C(C[n+]3ccc4cc(O)c(O)cc4c3)CS[C@H]12)c1csc(N)n1 (stereo partly drawn) :: 0.78

Your task in this section: give MIC for each listed record.
1. C=C(O/N=C(\C(=O)NC1C(=O)N2C(C(=O)[O-])=C(C[n+]3ccc4cc(O)c(O)cc4c3)CSC12)c1csc(N)n1)C(=O)O (stereo not drawn)
2. C=CCON=C(C(=O)NC1C(=O)N2C(C(=O)[O-])=C(C[n+]3ccc4cc(O)c(O)cc4c3)CS[C@H]12)c1csc(N)n1 (stereo partly drawn)
3. CC(C)(ON=C(C(=O)NC1C(=O)N2C(C(=O)[O-])=C(C[n+]3ccc4ccccc4c3)CSC12)c1csc(N)n1)C(=O)O (stereo not drawn) [Reference Ex. 1, reference compound]

[1.56, 0.39, 3.12]
